Documented viability at 5 µM across a set of compounds
system: L02; assay: Hepatoprotective activity against concanavalin A induced liver injury in human HL7702 cells assessed as cell survival rate at 5 uM preincubated for 12 hrs followed by concanavalin A stimulation for 12 hrs by MTT assay (reference value: 51.37%); type: functional; details: time 24 hrs, read-out: Survival
Give the value, in units of %, as a plain number.

compound: COc1c(Cl)c2c(c(OC)c1OC)-c1c(c(Cl)c(OC)c(OC)c1OC(=O)c1ccc(C(F)(F)F)cc1)CC(C)C(C)C2 (centres undefined)
viability at 5 µM / %: 65.1
//
compound: COc1c(Cl)c2c(c(OC)c1OC)-c1c(c(Cl)c(OC)c(OC)c1OC(=O)c1cccs1)CC(C)C(C)C2 (centres undefined)
viability at 5 µM / %: 80.4
//
compound: COC(=O)c1ccc(-c2ccc(C(=O)OC)cc2)cc1 [BIPHENYL DIMETHYL DICARBOXYLATE]
viability at 5 µM / %: 63.9

Supply viability at 5 µM value. Item: COc1cc2c(c(OC)c1OC)-c1c(O)c(OC)c(OC)c([N+](=O)[O-])c1CC(C)C(C)C2 (centres undefined) 70.2

Output viability at 5 µM of COc1ccc(C(=O)Oc2c(OC)c(OC)c(Cl)c3c2-c2c(cc(OC)c(OC)c2OC)CC(C)C(C)C3)cc1 (centres undefined) 70

Give the reported value of viability at 5 µM for this record: COc1cc2c(c(OC)c1OC)-c1c(c(Cl)c(OC)c(OC)c1OCCCOC(=O)/C=C/c1ccccc1)CC(C)C(C)C2 (centres undefined) 71

Read off the recorded viability at 5 µM for COc1cc2c(c(OC)c1OC)-c1c(c(N)c(OC)c(OC)c1OS(=O)(=O)c1ccc(C)cc1)CC(C)C(C)C2 (centres undefined) 89

Please supply the value of reported viability at 5 µM for the item COc1cc2c(c(OC)c1OC)-c1c(O)c(OC)c(OC)c(N)c1CC(C)C(C)C2 (centres undefined) 97.1

Give recorded viability at 5 µM. COc1cc2c(c(OC)c1OC)-c1c(O)c(OC)c(OC)c(Cl)c1CC(C)C(C)C2 (centres undefined) 72.5
